biological target: recombinant human dopamine transporter (Homo sapiens, UniProt Q01959); construct: expressed in transfected cells; assay: [125I]RTI-55 binding, dopamine transporter in HEK 293 cells; conditions: RS/SR racemates table; HEK 293 cells; read-out: DOPAMINE [I125]-RTI-55 BINDING (Ki)
Sequence (Q01959 whole entry): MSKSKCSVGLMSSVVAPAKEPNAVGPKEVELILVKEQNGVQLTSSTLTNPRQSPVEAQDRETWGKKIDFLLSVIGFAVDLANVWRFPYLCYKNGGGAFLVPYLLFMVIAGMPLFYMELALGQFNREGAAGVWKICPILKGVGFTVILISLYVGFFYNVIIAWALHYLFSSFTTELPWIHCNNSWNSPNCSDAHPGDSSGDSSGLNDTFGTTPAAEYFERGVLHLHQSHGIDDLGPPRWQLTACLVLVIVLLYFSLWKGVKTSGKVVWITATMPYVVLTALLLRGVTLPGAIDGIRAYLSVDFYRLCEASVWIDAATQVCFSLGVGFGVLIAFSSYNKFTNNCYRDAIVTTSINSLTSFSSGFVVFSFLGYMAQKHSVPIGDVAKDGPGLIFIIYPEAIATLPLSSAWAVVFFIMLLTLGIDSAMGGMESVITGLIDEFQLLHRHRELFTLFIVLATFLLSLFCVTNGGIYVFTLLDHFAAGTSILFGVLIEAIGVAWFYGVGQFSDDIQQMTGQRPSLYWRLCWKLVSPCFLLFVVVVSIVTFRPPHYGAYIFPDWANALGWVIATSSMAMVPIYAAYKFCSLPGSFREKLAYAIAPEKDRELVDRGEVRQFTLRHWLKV
reported_endpoint: pKi
Answers are plain numbers, as −log10 of the molar value.

// below: answered compounds
compound="CC(C)CC(c1ccc(Cl)c(Cl)c1)C1CCCCN1 (racemic) [Sample NN]" assay_target="recombinant human dopamine transporter (Homo sapiens, UniProt Q01959)" reported_endpoint=pKi result_value=7.51
compound="CC(C)CC(c1ccc(Cl)cc1)C1CCCCN1 (racemic) [Sample DD]" assay_target="recombinant human dopamine transporter (Homo sapiens, UniProt Q01959)" reported_endpoint=pKi result_value=6.77

Below: the item to evaluate.
Consider the compound Clc1ccc(C(CC2CCCC2)C2CCCCN2)cc1 (racemic) [LL] and give its measured pKi.
6.51

---

molecular target: recombinant human norepinephrine transporter (Homo sapiens); construct: expressed in transfected cells; test: cell-based; conditions: NORE[…] REUPTAKE (IC50)
reported_endpoint: IC50 (nM)
Numbers only, in nM.

compound="CCCC(c1ccc(Cl)cc1)C1CCCCN1 (racemic)" unit_label=nM result_value=200
compound="Clc1ccc(C(Cc2ccccc2)C2CCCCN2)cc1 (single isomer, unassigned) [J]" unit_label=nM result_value=2900
compound="CC(C)CC(c1ccc(C(C)C)cc1)C1CCCCN1 (racemic)" unit_label=nM result_value=7100
compound="CC(C)(C)CC(c1ccc(Cl)cc1)C1CCCCN1 (racemic) [FF]" unit_label=nM result_value=730
compound="Clc1ccc(C(CCc2ccccc2)C2CCCCN2)cc1 (single isomer, unassigned) [I]" unit_label=nM result_value=680
compound="Clc1ccc(C(CC2CCCCC2)C2CCCCN2)cc1 (single isomer, unassigned) [H]" unit_label=nM result_value=940
compound="Clc1ccc(C(CCc2ccccc2)C2CCCCN2)cc1 (single isomer, unassigned) [II]" unit_label=nM result_value=610
compound="Clc1ccc(C(CC2CCCCC2)C2CCCCN2)cc1 (single isomer, unassigned) [HH]" unit_label=nM result_value=1700
compound="CC(C)(C)CC(c1ccc(Cl)cc1)C1CCCCN1 (racemic) [F]" unit_label=nM result_value=520

Below: the item to evaluate.
Consider the compound CC(C)C(c1ccc(Cl)cc1)C1CCCCN1 (single isomer, unassigned) and give its measured IC50.
51

---

biological target: recombinant human norepinephrine transporter (Homo sapiens, UniProt P23975); construct: expressed in transfected cells; test: cell-based; settings: RS/SR racemates table; HEK 293 cells; read-out: NOREPINEPHRINE NE REUPTAKE (IC50)
Sequence (P23975 whole entry): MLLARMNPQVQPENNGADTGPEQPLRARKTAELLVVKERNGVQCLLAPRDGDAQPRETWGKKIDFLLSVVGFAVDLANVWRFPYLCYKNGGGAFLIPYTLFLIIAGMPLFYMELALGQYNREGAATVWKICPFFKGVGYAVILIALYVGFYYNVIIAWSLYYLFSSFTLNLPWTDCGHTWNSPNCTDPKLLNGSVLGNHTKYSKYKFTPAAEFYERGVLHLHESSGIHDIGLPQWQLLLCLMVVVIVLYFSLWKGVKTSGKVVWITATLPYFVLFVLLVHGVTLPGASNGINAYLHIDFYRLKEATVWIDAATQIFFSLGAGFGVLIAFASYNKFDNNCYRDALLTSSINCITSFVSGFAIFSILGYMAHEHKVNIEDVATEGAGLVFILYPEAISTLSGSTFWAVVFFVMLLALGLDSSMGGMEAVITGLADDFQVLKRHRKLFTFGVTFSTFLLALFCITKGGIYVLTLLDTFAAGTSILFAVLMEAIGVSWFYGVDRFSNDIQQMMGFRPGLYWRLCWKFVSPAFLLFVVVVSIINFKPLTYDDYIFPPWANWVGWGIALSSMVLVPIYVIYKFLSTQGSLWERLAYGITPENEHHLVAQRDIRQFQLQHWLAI
Give measured IC50 for each item. Keep answers brief.
Give bare numbers, in µM.

compound="CCCCC(c1ccc(Cl)cc1)C1CCCCN1 (single isomer, unassigned) [GG]" result_value=0.18
compound="COC(=O)C(c1ccc(Cl)c(Cl)c1)C1CCCCN1 (single isomer, unassigned) [MM]" result_value=0.19
compound="CC(C)CC(c1ccc(Cl)c(Cl)c1)C1CCCCN1C (single isomer, unassigned) [OO]" result_value=0.1
compound="Clc1ccc(C(CC2CCCC2)C2CCCCN2)cc1 (racemic) [LL]" result_value=0.73

Batch lookup, IC50 per entry.
1. COC(=O)C(c1ccc(Cl)cc1)C1CCCCN1 (single isomer, unassigned) [AA]
2. CC(C)CC(c1ccc(Cl)cc1)C1CCCCN1 (racemic) [Sample DD]
3. CC(C)CC(c1ccc(Cl)c(Cl)c1)C1CCCCN1 (racemic) [Sample NN]

[1.4, 0.75, 0.019]

---

target: recombinant human dopamine transporter (Homo sapiens, UniProt Q01959); construct: expressed in transfected cells; assay: [125I]RTI-55 binding, dopamine transporter in HEK 293 cells; details: DOPAMINE [I125]-RTI-55 BINDING (Ki), RR/SS racemates table; HEK 293 cells
Give measured Ki for each item. Keep answers brief.
Give bare numbers, in nM.

// below: answered compounds
compound="Clc1ccc(C(Cc2ccccc2)C2CCCCN2)cc1 (single isomer, unassigned) [J]" reported_endpoint=Ki result_value=440
compound="CC(C)CC(c1ccc(Cl)c(Cl)c1)C1CCCCN1C (single isomer, unassigned) [O]" reported_endpoint=Ki result_value=6.6
compound="CC(C)(C)CC(c1ccc(Cl)cc1)C1CCCCN1 (racemic) [F]" reported_endpoint=Ki result_value=120

Batch lookup, Ki per entry.
1. CCC(c1ccc(Cl)cc1)C1CCCCN1 (single isomer, unassigned) [B]
2. Clc1ccc(C(CCc2ccccc2)C2CCCCN2)cc1 (single isomer, unassigned) [I]

[37, 24]

---

target: recombinant human serotonin transporter (Homo sapiens, UniProt P31645); construct: expressed in transfected cells; assay: serotonin (5HT) reuptake inhibition in HEK 293 cells; assay type: cell-based; details: SEROTONIN 5HT REUPTAKE (IC50), RR/SS racemates table; HEK 293 cells
Sequence (P31645 whole entry): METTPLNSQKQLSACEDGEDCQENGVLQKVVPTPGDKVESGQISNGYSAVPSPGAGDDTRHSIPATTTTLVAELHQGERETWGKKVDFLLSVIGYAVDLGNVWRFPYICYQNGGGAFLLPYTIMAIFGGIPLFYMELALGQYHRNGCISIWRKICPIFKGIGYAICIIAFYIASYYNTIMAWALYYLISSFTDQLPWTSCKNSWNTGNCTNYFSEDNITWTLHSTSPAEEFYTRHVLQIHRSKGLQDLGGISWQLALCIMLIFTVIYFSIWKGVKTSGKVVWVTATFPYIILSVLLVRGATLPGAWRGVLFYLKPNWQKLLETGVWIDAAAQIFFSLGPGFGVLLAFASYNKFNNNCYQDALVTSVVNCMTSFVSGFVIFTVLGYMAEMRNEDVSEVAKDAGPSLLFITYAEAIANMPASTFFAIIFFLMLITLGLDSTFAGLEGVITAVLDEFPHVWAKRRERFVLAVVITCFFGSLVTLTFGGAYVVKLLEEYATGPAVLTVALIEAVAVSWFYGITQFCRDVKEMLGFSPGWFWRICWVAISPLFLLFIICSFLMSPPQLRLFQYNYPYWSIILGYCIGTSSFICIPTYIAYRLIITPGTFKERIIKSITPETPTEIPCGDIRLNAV
reported_endpoint: pIC50
Numbers only, as −log10 of the molar value.

compound="COC(=O)C(c1ccccc1)C1CCCCN1 (stereo not shown) [MPH, methylphenidate, reference compound]" assay_target="recombinant human serotonin transporter (Homo sapiens, UniProt P31645)" reported_endpoint=pIC50 result_value=4.26
compound="Clc1ccc(C(CCc2ccccc2)C2CCCCN2)cc1 (single isomer, unassigned) [I]" assay_target="recombinant human serotonin transporter (Homo sapiens, UniProt P31645)" reported_endpoint=pIC50 result_value=6.19
compound="CC(C)C(c1ccc(Cl)cc1)C1CCCCN1 (single isomer, unassigned) [C]" assay_target="recombinant human serotonin transporter (Homo sapiens, UniProt P31645)" reported_endpoint=pIC50 result_value=5.48
compound="COC(=O)C(c1ccc(Cl)c(Cl)c1)C1CCCCN1 (single isomer, unassigned) [M]" assay_target="recombinant human serotonin transporter (Homo sapiens, UniProt P31645)" reported_endpoint=pIC50 result_value=6.27
compound="CC(C)CC(c1ccc(Cl)c(Cl)c1)C1CCCCN1C (single isomer, unassigned) [O]" assay_target="recombinant human serotonin transporter (Homo sapiens, UniProt P31645)" reported_endpoint=pIC50 result_value=5.85
compound="Clc1ccc(C(CC2CCCCC2)C2CCCCN2)cc1 (single isomer, unassigned) [H]" assay_target="recombinant human serotonin transporter (Homo sapiens, UniProt P31645)" reported_endpoint=pIC50 result_value=6.00
compound="CCC(c1ccc(Cl)cc1)C1CCCCN1 (single isomer, unassigned) [B]" assay_target="recombinant human serotonin transporter (Homo sapiens, UniProt P31645)" reported_endpoint=pIC50 result_value=5.62
compound="Clc1ccc(C(C2CCCC2)C2CCCCN2)cc1 (single isomer, unassigned) [K]" assay_target="recombinant human serotonin transporter (Homo sapiens, UniProt P31645)" reported_endpoint=pIC50 result_value=5.34

Batch lookup, pIC50 per entry.
1. Clc1ccc(C(Cc2ccccc2)C2CCCCN2)cc1 (single isomer, unassigned) [J]
2. CC(C)CC(c1ccc(C(C)C)cc1)C1CCCCN1 (racemic) [P]

1: 5.96; 2: 5.33

---

target: recombinant human serotonin transporter (Homo sapiens, UniProt P31645); construct: expressed in transfected cells; assay: serotonin (5HT) reuptake inhibition in HEK 293 cells; assay type: cell-based; conditions: RS/SR racemates table; HEK 293 cells; read-out: SEROTONIN 5HT REUPTAKE (IC50)
reported_endpoint: IC50 (nM)
Answers are plain numbers, in nM.

Consider the molecule CC(C)CC(c1ccc(Cl)c(Cl)c1)C1CCCCN1 (racemic) and give its measured IC50.
290

---

target: recombinant human dopamine transporter (Homo sapiens); construct: expressed in transfected cells; assay: dopamine reuptake inhibition in HEK 293 cells; format: cell-based; settings: DOPAMINE DA REUPTAKE (IC50), RS/SR racemates table; HEK 293 cells
pIC50: −log10 of the molar value.
Decide by pIC50: equal to or exceeding 6 means criterion met, less means criterion not met.

molecule="COC(=O)C(c1ccc(Cl)cc1)C1CCCCN1 (single isomer, unassigned)" assigned_label="criterion not met"
molecule="Clc1ccc(C(CCc2ccccc2)C2CCCCN2)cc1 (single isomer, unassigned)" assigned_label="criterion met"
molecule="CCCC(c1ccc(Cl)cc1)C1CCCCN1 (racemic)" assigned_label="criterion met"
molecule="CCC(c1ccc(Cl)cc1)C1CCCCN1 (single isomer, unassigned)" assigned_label="criterion not met"

Below: the item to evaluate.
Quick check: does Clc1ccc(C(Cc2ccccc2)C2CCCCN2)cc1 (single isomer, unassigned) have pIC50 greater than or equal to 6?
criterion met

---

molecular target: recombinant human norepinephrine transporter (Homo sapiens, UniProt P23975); construct: expressed in transfected cells; experiment: biochemical; assay type: binding; details: NOREPINEPHRINE [I125]-RTI-55 BINDING (Ki), RR/SS racemates table; HEK 293 cells
reported_endpoint: pKi
Answers are plain numbers, as −log10 of the molar value.

compound="COC(=O)C(c1ccccc1)C1CCCCN1 (centres unmarked) [MPH, methylphenidate, reference compound]" result_value=5.74

Below: the item to evaluate.
Consider the compound CCCCC(c1ccc(Cl)cc1)C1CCCCN1 (single isomer, unassigned) [G] and give its measured pKi.
6.64
